Tested on: BT-549
ASSAY NAME: NCI tumour cell line growth inhibition, 48 h
Activity calls are given as the source filed them. Cut-off read from the data, not from the text of the source: active = GI50 up to about 1.1 µM and inactive = higher.
Known GI50 of a selection of molecules
QUANTITY MEASURED: GI50

CC(C)(C)C1=CC(=CC=C2C=CN(CCCCCCCCCCCO)C=C2)C=C(C(C)(C)C)C1=O	2.12 µM (inactive)
Cc1oc2c(c1C(=O)c1ccccc1)C(=O)c1ccccc1C2=O	6.19 µM (inactive)
O=c1[nH]nc(Cc2ccccc2)n1-n1cnnc1	> 100 µM (inactive)
N#CC(C(=O)c1ccccc1F)c1nc2cc(C(F)(F)F)ccc2s1 (stereo unspecified)	23 µM (inactive)
COc1ccc(/C=N/CCC/N=C/c2ccc(OC)cc2O)c(O)c1	48.9 µM (inactive)
CCNc1cc2oc(=O)cc(C(F)(F)F)c2cc1C	> 100 µM (inactive)

----------
Test system: OVCAR-5
ASSAY NAME: NCI tumour cell line growth inhibition, 48 h
Calls of active or inactive are those of the source. Cut-off read from the data, not from the text of the source: active = GI50 up to about 1.1 µM and inactive = higher.
QUANTITY MEASURED: GI50

CC(C)(C)[Si](C)(C)OCC1OC(n2ccc(=O)[nH]c2=O)C(O[Si](C)(C)C(C)(C)C)/C1=N/O (centres undefined)	3.9 µM (inactive)
O=C(O)Cc1ccc(Oc2nc3ccccc3nc2C(=O)O)cc1	> 100 µM (inactive)
Cc1cccc2c1C(=O)C1(Cc3ccccc3C1=O)C2 (centres undefined)	> 100 µM (inactive)
COc1cccc(C2c3cc4c(cc3OC(N3CCOCC3)C2C)OCO4)c1OC (centres undefined)	13.1 µM (inactive)
COC1=N[C@H](C(C)C)C(OC)=N[C@H]1Cc1ccc(C[C@@H]2N=C(OC)[C@@H](C(C)C)N=C2OC)s1	17.5 µM (inactive)
NC(=S)NS(=O)(=O)c1ccc(F)cc1	> 100 µM (inactive)
Cc1cnc2c(c1)C(=O)N(c1ccc([N+](=O)[O-])cc1)S2(=O)=O	> 100 µM (inactive)
COC(=O)C(Cc1nc2ccccc2nc1O)C(=O)C(=O)Nc1ccc([N+](=O)[O-])cc1[N+](=O)[O-] (centres undefined)	27.2 µM (inactive)
Cc1cccc2c1C/C(=C1\CCc3c(C)cccc31)C2=O	> 100 µM (inactive)
O=C(/N=C(/Nc1ccccc1)SCS/C(=N\C(=O)c1ccco1)Nc1ccccc1)c1ccco1	> 100 µM (inactive)
O=c1[nH]c2cc(Cl)ccc2nc1/C(=N/Nc1ccccc1)C(O)c1ccco1 (centres undefined)	> 100 µM (inactive)
CC(=O)NC(CCCN(Cc1ccccc1)C(=O)N(CCCl)N=O)C(=O)NCc1ccccc1 (centres undefined)	35.2 µM (inactive)
C=CCO[C@]1(CC=C)C(=O)C(=O)OC1C1COC(C)(C)O1 (some centres undefined)	> 100 µM (inactive)
CCOC(=O)/C(=C\NCc1ccc2c(c1)OCO2)c1nc2ccccc2[nH]1	94.8 µM (inactive)
Nc1nc(Cl)c(N)c(NCC2(CO)CC(CCCc3ccccc3)C2)n1 (centres undefined)	> 100 µM (inactive)
NS(=O)(=O)c1ccc(NCc2cccc3c(=O)c4ccc(Cl)cc4oc23)cc1	> 100 µM (inactive)
CO[C@]12CC(=O)C3(C(C[C@H]4CC5CCC6=CC(=O)CC[C@]6(OC(C)=O)C5C[C@@]43C)C1)C1C[C@H]3[C@@H]4CCC5=CC(=O)CC[C@]5(OC(C)=O)[C@H]4CC[C@]3(C)C12 (some centres undefined)	> 100 µM (inactive)
CCOC(=O)C1C(NC(N)=O)N(Cc2ccccc2)C(=O)N1Cc1ccccc1 (centres undefined)	29.3 µM (inactive)
Cc1cccc(C)c1NC(=O)CCCC(=O)CC(=O)/C=C/c1ccccc1	> 100 µM (inactive)

----------
Test system: HOP-62
ASSAY NAME: NCI tumour cell line growth inhibition, 48 h
Calls of active or inactive are those of the source. No stated cut-off is given here; in the data, active = GI50 up to about 1.1 µM and inactive = higher.
QUANTITY MEASURED: GI50

COc1ccc(/C=N/n2c(Cc3ccccc3)n[nH]c2=O)c(OC)c1	20.9 µM (inactive)
N#C/C(=C\c1ccc(Cl)cc1)c1nc(-c2cc3ccccc3oc2=O)cs1	24.8 µM (inactive)
CN(C)c1ccc(/C=C(\NC(=O)c2ccccc2)c2nc3ccc4c(c3[nH]2)C(=O)c2ccccc2C4=O)cc1	61.9 µM (inactive)
Cc1oc2c(c1C(=O)c1ccccc1)C(=O)c1ccccc1C2=O	14.2 µM (inactive)

----------
System: Hs-578T
ASSAY NAME: NCI tumour cell line growth inhibition, 48 h
Calls of active or inactive are those of the source. Rule as the data show it: active = GI50 up to about 1.1 µM and inactive = higher.
Labels: active, inactive

COc1cc(/C=C2/C(=O)N(C(=O)c3ccccc3O)N=C2C)cc(OC)c1OC	active
CCCCC[C@@H]1OCO[C@@]2(C)/C=C(C)\C=C/C(=O)O[C@H]([C@@H](C)[C@@H](O)[C@H](C)[C@@]3(O)C[C@@H](O[C@H]4C[C@@H](O)[C@H](O)[C@@H](C)O4)[C@H](C)[C@@H](C)O3)[C@@H](OC)/C=C\C=C(\C)C[C@@H]1[C@@H]2O (stereo in doubt)	inactive
CC1CCC2(C(=O)O)CCC3(C)C(=CCC4C5(C)CCC(O)C(C)(C)C5CCC43C)C2C1C (stereo not drawn)	inactive
COC1=C(OC)C(=O)C(Cc2c(Cl)nc3sc(C)cn23)=C(C)C1=O	inactive
COC(=O)c1c(O)ccc2c1c1c(n2Cc2ccc(Cl)cc2Cl)C(=O)c2ccccc2C1	inactive
Cc1cc2c(cc1Cl)Sc1nnc(C)n1S2(=O)=O	inactive
COC(=O)/C=C\C(C#N)(C#N)/N=C/c1ccc(C)cc1	inactive
COc1ccc(N(CN2C(=O)CCC2C(=O)O)C(C)=O)cc1 (stereo not drawn)	inactive

----------
Parameter: GI50. Scope: all listed entries.
System: CAKI-1
ASSAY NAME: NCI tumour cell line growth inhibition, 48 h
Calls of active or inactive are those of the source. No stated cut-off is given here; in the data, active = GI50 up to about 1.1 µM and inactive = higher.
QUANTITY MEASURED: GI50

C=CCOC(=O)/C(=C\c1ccc(OC)c(OC)c1)c1ccc(OC)c(OC)c1	62.2 µM (inactive)
C=CC1C(OC2OC(CO)C(O)C(O)C2O)OC=C(C(=O)OC)C1CC1CC(=O)CC(CCc2ccc(O)cc2)O1 (centres undefined)	> 100 µM (inactive)
C=CC[C@@H]1C(=O)[C@@]2(O[Si](C(C)C)(C(C)C)C(C)C)CC[C@@H]1C[C@H]2NC(=O)OCC(Cl)(Cl)Cl	59.2 µM (inactive)
CCN(CC)c1ccc(/N=N\c2ccc(-c3nc4ccc[n+](C)c4s3)cc2)cc1	19.7 µM (inactive)
CCOC(=O)CSc1[nH]c2nc(C)nc(Cl)c2c1C#N	> 10 µM (inactive)
O=c1c2ccccc2nc2n1-c1ccccc1SC2	> 100 µM (inactive)
C/C(Cc1ccc2c(c1)OCO2)=N\NC(=O)C(C)Sc1nnc(SC(C)C(=O)N/N=C(\C)Cc2ccc3c(c2)OCO3)s1 (centres undefined)	> 100 µM (inactive)
O=S(=O)(c1ccccc1)C(CN1CCCCC1)S(=O)(=O)c1ccccc1	> 100 µM (inactive)
CCOC(=O)/C(=C\NCc1ccc2c(c1)OCO2)c1nc2ccccc2[nH]1	> 100 µM (inactive)

----------
GI50 by entry:
System: M14
ASSAY NAME: NCI tumour cell line growth inhibition, 48 h
Activity calls are given as the source filed them. No stated cut-off is given here; in the data, active = GI50 up to about 1.1 µM and inactive = higher. Where a SMILES comes first, the peptide text is derived from it. The star is where a group is joined. Boc = CC(C)(C)OC(=O)*
QUANTITY MEASURED: GI50

COc1ccc2nc3n(c2c1)C(c1c(F)cccc1F)SC3 (stereo not given)	> 100 µM (inactive)
CC(C)(SCc1ccccc1)C(N)C(=O)O (stereo not given)	> 100 µM (inactive)
O=C(NN1C(=O)CSC1c1ccco1)c1ccncc1 (stereo not given)	> 100 µM (inactive)
CC(=O)NNc1nc(C)c(C(/C=C/c2ccccc2O)=N/NC(=O)c2ccncc2)s1	> 100 µM (inactive)
Nc1cc(C(=O)O)nc(O)n1	> 100 µM (inactive)
Nc1nc(Cl)c(N)c(NCC2(CO)CC(CCCc3ccccc3)C2)n1 (stereo not given)	22 µM (inactive)
O=C(O)Cc1ccc(Oc2nc3ccccc3nc2C(=O)O)cc1	> 100 µM (inactive)
CNS(=O)(=O)NNS(=O)(=O)c1ccc(C)cc1	> 100 µM (inactive)
CCCCC(C(=O)C(=O)NC1C2CC3CC(C2)CC1C3)C(=O)C(C)C (stereo not given)	> 100 µM (inactive)
COC(=O)C(Cc1c[nH]c2ccccc12)NC(=O)C(Cc1c[nH]c2ccccc12)NC(=O)C(Cc1c[nH]c2ccccc12)NC(=O)OC(C)(C)C (stereo not drawn) (Boc-Trp-Trp-Trp-OMe; configuration not given here)	37.3 µM (inactive)

----------
Tested on: MOLT-4
ASSAY NAME: NCI tumour cell line growth inhibition, 48 h
Calls of active or inactive are those of the source. Rule as the data show it: active = GI50 up to about 1.1 µM and inactive = higher.
Possible outcomes: active, inactive

C=CCCCC1(C)CCCCNC1=O (configuration not stated)	inactive
O=c1oc2ncccc2n1Cc1ccc([N+](=O)[O-])cc1	inactive
Cn1ccnc1Sc1ccc(/C=N/NC(=O)c2ccccc2O)cc1[N+](=O)[O-]	active
CCOC(=O)c1c[nH]c(C(=O)C=[N+]=[N-])c1C1CCN(CC)C1=S (configuration not stated)	inactive
O=C(Nc1nc2ccc([N+](=O)[O-])cc2s1)c1cc([N+](=O)[O-])ccc1Cl	inactive
O=C(NCCNCCO)N/N=C/c1ccc([N+](=O)[O-])cc1	inactive
COc1ccccc1/C=C1\SC(=S)N(/C=C2\C(=O)Oc3ccccc3C2=O)C1=O	inactive
Clc1cc(Cl)cc(C2ON=C(c3ccccc3)N2C23CC4CC(CC(C4)C2)C3)c1 (configuration not stated)	inactive
COC([C@@H](OC(=O)c1ccccc1)[C@H](OC(=O)c1ccccc1)C(O)COC(=O)c1ccccc1)n1cc(C)c(=O)[nH]c1=O (some centres not stated)	inactive
Cn1cnc(/C=C/C#N)c1	inactive
NC(=S)N/N=C(/CC(=O)c1ccccc1)C(=O)Nc1ccc(Cl)c(Cl)c1	inactive
CCN(C(=N)C#N)c1ccccc1	inactive
COc1cccc(NC(=O)N/C(=C/c2ccc(N(CCC#N)CCC#N)cc2)NC(=O)c2cc([N+](=O)[O-])ccc2Cl)c1	inactive
N/C(=N\O)N/N=C\c1c(O)cc(O)cc1O	inactive
COc1ccccc1[S+]([O-])Nc1ccccc1 (configuration not stated)	inactive
O=C(NCCO)c1cc2c(cn1)[nH]c1ccccc12	inactive
CCOC(=O)C(=O)Nc1c(C)cccc1CC	inactive
O=C(/N=C(/Nc1ccccc1)SCS/C(=N\C(=O)c1ccco1)Nc1ccccc1)c1ccco1	inactive
CC(C)[C@H](NC(=O)[C@H](N)Cc1ccc(N(CCCl)CCCl)cc1)C(=O)O	inactive
C=CC1(C)/C(=N\O)C(C)(CC)C(=O)N1O (configuration not stated)	inactive
NC(=S)N/N=C(\CC1OC(=O)c2ccccc21)c1ccc(Cl)cc1 (configuration not stated)	inactive
CC(C)N(CCCNc1c2ccccc2nc2cccc([N+](=O)[O-])c12)C(C)C	active
